Value source: patent US12624034B2

# TARGET OR SYSTEM: AKT2 (Homo sapiens)
# Construct: expressed in transfected cells; host or cells: HEK293
# Sequence (P31751 whole entry): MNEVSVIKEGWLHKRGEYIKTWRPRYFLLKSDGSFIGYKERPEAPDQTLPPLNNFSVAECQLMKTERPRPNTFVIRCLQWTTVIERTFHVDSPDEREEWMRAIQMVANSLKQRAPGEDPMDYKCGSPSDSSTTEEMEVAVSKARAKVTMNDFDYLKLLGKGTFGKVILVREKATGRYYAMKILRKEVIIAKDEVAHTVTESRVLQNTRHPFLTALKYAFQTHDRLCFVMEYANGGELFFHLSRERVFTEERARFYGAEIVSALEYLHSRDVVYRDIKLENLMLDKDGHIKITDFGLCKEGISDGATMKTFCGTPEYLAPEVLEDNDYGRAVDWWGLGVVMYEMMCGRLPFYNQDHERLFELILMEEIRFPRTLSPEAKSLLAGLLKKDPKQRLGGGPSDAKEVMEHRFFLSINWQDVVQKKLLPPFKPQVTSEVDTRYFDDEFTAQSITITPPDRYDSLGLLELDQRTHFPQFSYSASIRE
# ASSAY INFO: Live cell AKT2 target engagement by NanoBRET competitive probe displacement in HEK293 cells
# Format: binding
# TEST SETTINGS: NanoBRET live cell target engagement, HEK293 cells, 2 h at 37° C.; read-out: AKT2 IC50
ENDPOINT LABEL: IC50 (µM)

The cases that follow already have their IC50 on record.
Nc1ncccc1-c1nc2ccc(-n3cccn3)nc2n1-c1ccc2c(c1)CC[C@@H]2NC1CCN(c2cccnc2)CC1	0.768
Cn1ccc2c(C(=O)N[C@H]3CCc4cc(-n5c(-c6cccnc6N)nc6ccc(-n7cccn7)nc65)ccc43)[nH]cc2c1=O	0.307
CCOC(=O)N1CCC(N[C@H]2CCc3cc(-n4c(-c5cccnc5N)nc5ccc(-n6cccn6)nc54)ccc32)CC1	2.99

1: CC#Cc1cc(C(=O)N[C@H]2CCc3cc(-n4c(-c5cccnc5N)nc5ccc(-n6cccn6)nc54)ccc32)ccn1
2: CN[C@H]1CCc2cc(-n3c(-c4cccnc4N)nc4ccc(-n5cccn5)nc43)ccc21
Select one: 1 or 2 . Criterion: greater recorded IC50. # reply format: chosen label
2
(2: 5.17 µM, 1: 0.0829 µM)

1: Nc1ncccc1-c1nc2ccc(-n3cccn3)nc2n1-c1ccc2c(c1)CC[C@@H]2NC(=O)c1cnc(C(F)F)nc1
2: Cn1ncc(-c2ccc3nc(-c4cccnc4N)n(-c4ccc5c(c4)CC[C@@H]5n4ccnn4)c3n2)n1
3: Cc1cnc(-c2ccc3nc(-c4cccnc4N)n(-c4ccc5c(c4)CC[C@@H]5NC(=O)c4nccnc4C)c3n2)s1
Arrange the 3 compounds by rising IC50, starting with the smallest. Use the labels to give the requested order.
1, 2, 3

A: Nc1ncccc1-c1nc2ccc(-n3cccn3)nc2n1-c1ccc2c(c1)CC[C@@H]2NC(=O)c1ccncc1
B: Cc1ncccc1C(=O)N[C@H]1CCc2cc(-n3c(-c4cccnc4N)nc4ccc(-n5nccn5)nc43)ccc21
Between A and B , which one shows the smaller IC50 number? Give the label under which the chosen entry appears.
A
(A: 0.0986 µM, B: 1.79 µM)
